Values compiled from PubChem BioAssay (Tox21).

test: qHTS assay to identify small molecule antagonists of the estrogen receptor alpha (ER-alpha) signaling pathway using the BG1 cell line in the presence of 0.1 nM 17-beta-estradiol - cell viability counter screen (AID 1259241); conditions: VM7Luc4E2 (BG1) viability, CellTiter-Fluor protease, 22 h, 0.1 nM estradiol agonist added; series mostly up to 92.4 µM; note: nearly all actives have a fitted effect of over 40% in size
Records with an inconclusive call do not appear. Active and inactive are the calls of the source. Calls come from the whole dose curve; as a rule, active = well fitted cell-killing curve with a large enough effect in the repeat runs; inconclusive = weak or mixed curves, or effect the other way; inactive = flat fitted curve, though single readings scatter.
Bench note: report the call from 1 for active, -1 for inactive

Reference set (2 entries):
> print(dat)
                           molecule  category.label
1  CCOP(=O)(OCC)Oc1cc(C)nc(C(C)C)n1              -1
2       CCCCCCCCCCCCCCn1cc[n+](C)c1              -1

Which outcome did this test record for the molecule `CC[C@]1(O)CC[C@H]2[C@@H]3CCC4=CCCC[C@@H]4[C@H]3CC[C@@]21C` ?
-1

Answer briefly: the call reported for `O=C(Nc1ccc(F)cc1F)c1cccnc1Oc1cccc(C(F)(F)F)c1` in this assay.
-1

What classification did `CC1CCCC1` end up with in this test?
-1

How did this test come out for ClC1(Cl)C2(Cl)C3(Cl)C4(Cl)C(Cl)(Cl)C5(Cl)C3(Cl)C1(Cl)C5(Cl)C24Cl (configuration not stated) ?
-1

Which outcome did this test record for the molecule `Nc1nc(N)nc(Cl)n1` ?
-1

Can you look up the reported call for `CN(C)c1ccc(N)cc1` for me?
1

Tell me the recorded outcome of this test for `Nc1nc(N)c(N)c(N)n1` .
-1

Please indicate how the test categorized `[C-]1=CC=CC1.[Cl][Zr+2][Cl].c1cc[cH-]c1` .
-1

What classification did `Cc1ccc([N+](=O)[O-])[c]2c1[O][Hg]2` end up with in this test?
1

Look up the recorded call for `O.O.O.O.O.O.O=S(=O)([O-])[O-].[Ni+2]` in this test.
-1

Record lookup: outcome of this test for `C[C@H]1[C@H](c2ccc(Cl)cc2)SC(=O)N1C(=O)NC1CCCCC1` ?
-1

Identify the outcome logged in this assay for the molecule shown: OCC(Br)CBr (configuration not stated)
-1

For `Oc1ccc2[nH]cc(CCCCN3CC=C(c4ccccc4)CC3)c2c1` , which call appears in the assay record?
-1

What was the test verdict on `[O-][Cl+3]([O-])([O-])O` ?
-1

Record lookup: outcome of this test for `Clc1cc(Cl)c(-c2cc(Cl)c(Cl)cc2Cl)cc1Cl` ?
-1

---

assay: qHTS assay to identify small molecule antagonists of the estrogen receptor beta (ER-beta) signaling pathway - cell viability counter screen (AID 1259382); details: ER-beta-UAS-bla HEK293T viability, CellTiter-Glo luminescence, 16 h; series mostly up to 92.4 µM; note: nearly all actives have a fitted effect of over 55% in size
Results filed as inconclusive are left out. Calls of active or inactive are those of the source. Calls follow the shape of the dose curve; as a rule, active = well fitted cell-killing curve with a large enough effect in the repeat runs; inconclusive = weak or mixed curves; inactive = flat fitted curve, though single readings scatter.
Form entry, call: pick from yes (1) = active, no (0) = inactive

Some solved entries appear below for comparison.
> print(dat)
                  compound.structure.string  category.label
1  CCCCN(CCCC)C(=S)[S-].CCCCN(CCCC)C(=S)[S-].[Ni+2]          no (0)
2  CC(=O)[O][Sn]([c]1ccccc1)([c]1ccccc1)[c]1ccccc1         yes (1)
3  N#Cc1ccc(N(CC(N)=O)CC(F)(F)F)cc1C(F)(F)F          no (0)
4                   Cc1cccc(Cc2cnc[nH]2)c1C          no (0)

Now look at this entry.
Please let me know the test result on file for `C[C@H]1[C@H](c2ccc(Cl)cc2)SC(=O)N1C(=O)NC1CCCCC1` .
no (0)

---

experiment: qHTS assay to identify small molecule agonists of the androgen receptor (AR) signaling pathway in the presence of an antagonist - cell viability counter screen (AID 1259379); conditions: MDA-kb2 viability, CellTiter-Fluor, 16 h; series mostly up to 92.4 µM; note: nearly all actives have a fitted effect of over 25% in size
Results filed as inconclusive are left out. Calls of active or inactive are those of the source. The call rests on the fitted dose curve; in most records, active means well fitted cell-killing curve with a large enough effect in the repeat runs; inconclusive means weak or mixed curves, or effect the other way; inactive means flat fitted curve, though single readings scatter.
Parameter call: string, one of label 1 = active, label 0 = inactive

Some entries whose results are on file:
COMPOUND	CATEGORY LABEL
O=[N+]([O-])c1ccc(CCl)cc1	label 0
CCNc1nc(NC(C)C(C)C)nc(SC)n1 (stereo unspecified)	label 0
CC(C)NCC(O)c1ccccc1Cl (stereo unspecified)	label 0
CC(O)C(=O)[O][Hg][c]1ccccc1 (stereo unspecified)	label 1
[Cl-].[Cl-].[Sn+2]	label 0
O=C(N[C@@H]1N=C(c2ccccc2F)c2cccc3c2N(CC3)C1=O)c1cc2ccccc2[nH]1	label 0
O=C1C[C@@H]2OCC=C3CN4CC[C@]56c7ccccc7N1[C@H]5[C@H]2[C@H]3C[C@H]46	label 0
Cc1ccc(C)c2ccccc12	label 0

Tell me the assay call for CC1CN1 (stereo unspecified) please.
label 0

---

test: Caspase-3/7 induction in CHO-K1 cells by small molecules, qHTS cell viability counter screen (AID 1346979); conditions: CellTiter-Fluor fluorescence, 17 h; series mostly up to 92.4 µM; note: nearly all actives have a fitted effect of over 35% in size
Inconclusive results are not listed. Active and inactive are the calls of the source. The call rests on the fitted dose curve; in most records, active means well fitted cell-killing curve with a large enough effect in the repeat runs; inconclusive means weak or mixed curves, or effect the other way; inactive means no such curve, though single readings can be large or run the other way.
Write down the outcome that applies. Available outcomes: Y (active), N (inactive)

Worked set:
COMPOUND	CATEGORY LABEL
[C-]1=CC=CC1.[Cl][Zr+2][Cl].c1cc[cH-]c1	N
COc1ccc2[nH]cc(CCN(C(C)C)C(C)C)c2c1	N
Nc1cc(Cl)ccc1Cl	N
CC(Cl)CCl (stereo unspecified)	N
CC(C)C(Br)C(=O)NC(N)=O (stereo unspecified)	N

Now take the following compound into account.
Status in this test for `CCC[CH2][Sn]([CH2]CCC)([CH2]CCC)[CH2]CCC` ?
Y

---

test: qHTS assay for small molecules that induce genotoxicity in human embryonic kidney cells expressing luciferase-tagged ATAD5 - cell viability (AID 651634); conditions: HEK293T ATAD5-luc cells viability, CellTiter-Fluor, 15.5 h; series mostly up to 83.3 µM; note: % is set by controls: 0 for no effect and ±100 for the full control effect; nearly all actives have a fitted effect of over 25% in size
Records with an inconclusive call do not appear. Activity calls are given as the source filed them. The call rests on the fitted dose curve.
QUANTITY MEASURED: outcome

> print(dat)
                                   compound    result
1  CC(C)C(Br)C(=O)NC(N)=O (stereo not drawn)  inactive
2               c1csc(-c2ccc(-c3cccs3)s2)c1  inactive
3                        [Cl-].[Cl-].[Sn+2]  inactive

---

experiment: qHTS assay to identify aromatase inhibitors - cell viability counter screen (AID 743084); conditions: MCF-7 aro ERE viability, CellTiter-Fluor, 24 h; series mostly up to 70.3 µM;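 note: cells stimulated with testosterone during compound exposure; % is set by controls: 0 for no effect and ±100 for the full control effect; nearly all actives have a fitted effect of over 55% in size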
Inconclusive results are not listed. Active and inactive are the calls of the source. The call rests on the fitted dose curve; in most records, active means well fitted cell-killing curve with a large enough effect in the repeat runs; inconclusive means weak or mixed curves, or effect the other way; inactive means no such curve, though single readings can be large or run the other way.
Give your call using only these classes: t = active, f = inactive

See these solved cases before continuing.
> print(dat)
                                   compound  category.label
1  CCCCn1cc[n+](C)c1 (tested in a mixture with another compound)               f
2                    O=[N+]([O-])[O-].[Tl+]               f

What was the test verdict on CCOP(=S)(OCC)SC(CCl)N1C(=O)c2ccccc2C1=O (stereo not given) ?
f

Test call for this compound, please: `O=C(Nc1ccc(F)cc1F)c1cccnc1Oc1cccc(C(F)(F)F)c1`
f

Please indicate how the test categorized `[C-]1=CC=CC1.[Cl][Zr+2][Cl].c1cc[cH-]c1` .
f

---

target: Androgen receptor (Homo sapiens); test: qHTS assay to identify small molecule antagonists of the androgen receptor (AR) signaling pathway using the MDA cell line (AID 743042; note: nearly all actives have a fitted effect of over 55% in size); settings: MDA-kb2 AR-luc, MMTV luciferase, R1881 antagonist, 16 h; series mostly up to 70.3 µM
Records with an inconclusive call do not appear. Calls of active or inactive are those of the source. Calls come from the whole dose curve; as a rule, active = well fitted inhibition curve with a large enough effect in the repeat runs; inconclusive = weak or mixed curves, or effect the other way; inactive = no such curve, though single readings can be large or run the other way.
The reply should name one outcome from class 1 (active), class 0 (inactive)

> print(dat)
       molecule                       target.desc  category.label
1  O=NN(CCO)CCO  Androgen receptor (Homo sapiens)         class 0

What is the recorded call for this molecule in the test? `C=CCOC(=O)c1ccccc1N`
class 0

Each molecule tested received a call. Report the one for CCOP(=S)(OCC)SC(CCl)N1C(=O)c2ccccc2C1=O (stereo not drawn) .
class 1

---

test: qHTS RealTime-Glo MT Cell Viability Assay in HEK293 cells - 40 hour (AID 1224874); details: RealTime-Glo luminescence; stronger effect = lower value; note: % is set by controls: 0 for no effect and ±100 for the full control effect; nearly all actives have a fitted effect of over 50% in size
Records with an inconclusive call do not appear.
QUANTITY MEASURED: max response (%)
Answers are plain numbers, in %.

> print(dat)
                                   compound  quantity.measured  unit.abbrev  numeric.readout
1  Cc1cc2c3c(c1)C(c1ccccc1)=N[C@@H](NC(=O)c1ccncc1)C(=O)N3CC2       max response            %            -16.5

Lab note: each compound below needs its max response filled in.
1. CC(=O)[O-].CC(=O)[O-].CC(=O)[O-].[Sb+3]
2. Nc1ccccc1-c1ccccc1
3. CCN(CC)C(=O)N[C@@H]1C=C2c3cccc4[nH]cc(c34)C[C@@H]2N(C)C1
4. CNC(=O)O/N=C(\C)C(C)S(C)(=O)=O (stereo unspecified)
5. c1ccc(N=NNc2ccccc2)cc1

1: 11.6; 2: -12.7; 3: -0.723; 4: 1.59; 5: -3.75
